src = the supplement of paper PMC6555819

- Tested on: THRa homodimer (NR concentration 90 nM)
- Assay overview: PBM binding z-score (relative to random genomic background probes); higher = stronger binding; sequences stand for … in GC…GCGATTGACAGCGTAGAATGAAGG
Parameter: PBM binding z-score
Just the number, please, no unit attached.

>  <Sequence data>
ATACCAAGGTGATCGTGAGGTCGTTGTTACTAAC

>  <PBM binding z-score>
2.64

$$$$
>  <Sequence data>
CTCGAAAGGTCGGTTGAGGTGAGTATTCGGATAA

>  <PBM binding z-score>
1.25

$$$$
>  <Sequence data>
ACTAGCAGGCCAAGGTTGGGTCACTCAAACAAAG

>  <PBM binding z-score>
0.571

$$$$
>  <Sequence data>
TCTTGTAGATCAATAGAGTTTAAGAAAGTGCGCT

>  <PBM binding z-score>
-0.976

$$$$
>  <Sequence data>
CAAACTAGGGCACAGAGGTCAAAGTCCGTGCGTA

>  <PBM binding z-score>
1.32

$$$$
>  <Sequence data>
CCTCCTGGGCCAAAGGTCATTGATTCCAATGCTC

>  <PBM binding z-score>
0.804

$$$$
>  <Sequence data>
TCTCGGAGGACACGCAAGGTCAGAGCTCGACATC

>  <PBM binding z-score>
2.64

$$$$
>  <Sequence data>
TAACCTAGGTCATTGGGCCAGTATAGTACGCATC

>  <PBM binding z-score>
1.52

$$$$
>  <Sequence data>
ATCGAAAGGTCGTGTGGTGAGTATACAGAAAGGC

>  <PBM binding z-score>
0.842

$$$$
>  <Sequence data>
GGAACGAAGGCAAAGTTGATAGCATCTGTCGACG

>  <PBM binding z-score>
-1.21

$$$$

Query: Provide only the value of recorded PBM binding z-score for ATCGAAAGGTCGAAGGTGGGTATACCCACCCGAA
Reply: -0.334

Query: Give PBM binding z-score for the following sequence: ATACCAAGGTGATCGTGACGTCGTTGATACTAAC
Reply: 0.655

Query: Dear colleague, please send me the reported PBM binding z-score for CAGCCTAGGTCAAGGCCAGTATAGGAGGAACGTT when you can.
Reply: 0.86

Query: Please indicate PBM binding z-score recorded for GGGACTGGGGCATCAGCAGGTTACCATAACTTAA
Reply: 1.46

Query: Complete the entry with PBM binding z-score for CAAACTAGGTCAAGAGGTCAAAGCCCGCTTCCCG
Reply: 2.47
